# System: UACC-257 melanoma
# experimental_protocol: NCI-60 one-dose screen, 48 h (100 = growth as untreated, 0 = no growth, -100 = all killed)
# test_parameters: 10 µM unless noted
This is part of a sample that, as a whole, favours compounds with a hit. Of some 83,000 tested, about 20% had one in any assay. Calls of active or inactive are those of the source. The calls were made as follows: active = growth percent below 10; inactive = the rest.
attribute_measured: growth

What value of growth has been reported for the following compound? CS(=O)(=O)c1ccc(-n2nc(-c3ccc(Br)cc3)c3ccccc3c2=O)cc1
97.3% (inactive)

Requested field: growth. Item: COc1ccc(/C=C(\C#N)C(=O)Nc2cccc(Nc3nc(SC)nc(-c4cccc([N+](=O)[O-])c4)c3C#N)c2)cc1OC
103% (inactive)

Name the reported growth value associated with the compound O=C(O)c1ccc(N=CC(=O)c2ccc(-c3ccccc3)cc2)cc1
93.1% (inactive)

Dear colleague, I am looking for the recorded growth of the following compound: CCN(CC)CCCCNc1c2ccc(Cl)cc2nc2ccc(OC)cc12
-37.1% (active)

Could you tell me which growth is on file for Cc1cc(N2CCCCCC2)nc(NC2CCCC(Nc3ccnc4cc(Cl)ccc34)C2)n1 (stereo not given) ?
-78.9% (active)

Quick one: growth of CCN1CCN(c2nc(NCCNc3ccnc4cc(Cl)ccc34)c3ccccc3n2)CC1 ?
57.9% (inactive)

Look up growth: CCN(CC)c1ccc(/C=N\NC(=O)/C=C/C=C/c2ccc3c(c2)OCO3)c(O)c1
24.2% (inactive)

Which growth reading was recorded for the compound CCOC(=O)c1c(CN2CCN(C)CC2)nc2ccc(Cl)cc2c1-c1ccccc1 ?
-38% (active)

Look up growth: Cc1ccc(/C=C2\SC(=S)N(CC(=O)NCCCN3CCOCC3)C2=O)cc1
101% (inactive)

So what does the record say about growth for CC1=C[C@H]2c3c(c(O)c(O)c4oc5cc(O)ccc5c(=O)c34)[C@H](c3cc(O)c(O)c4oc5cc(O)ccc5c(=O)c34)[C@H]2C(C)(C)C1 ?
62.7% (inactive)

For O=C(Cn1cccc(Nc2ccccc2)c1=O)Nc1ccccc1 , what is its reported growth?
99.6% (inactive)

I have this compound here, O=C(CN1CCCCC1)Nc1ccc2oc(=O)ccc2c1 , and I need its recorded growth.
96.3% (inactive)

Entry Cn1c(=O)c2c(nc3n(-c4ccc(Cl)cc4Cl)c(Sc4nc(-c5ccccc5)c(C#N)c(=O)[nH]4)cn23)n(C)c1=O : reported growth = ?
99.9% (inactive)

growth for COc1cccc(Nc2nc(SC)nc(-c3cccc([N+](=O)[O-])c3)c2C#N)c1 ?
88.5% (inactive)

Looking for the measured growth of CCN=C1C=CC(=C(c2ccc(N)cc2)c2ccc(N(CC)CC)c(C)c2)C=C1 , can you help?
-0.947% (active)

Value lookup for growth; key = C=C1C(=O)O[C@H]2[C@H]1CC/C(COC(=O)NCCc1ccc(OC)c(OC)c1)=C\CC[C@@]1(C)O[C@@H]21
62.9% (inactive)

Which value of growth has been reported for COc1ccc(CN2c3ccccc3Oc3ccccc32)cc1F in the records?
58.9% (inactive)

Need growth, item c1ccc(CCNc2ncnc3[nH]ncc23)cc1
96.5% (inactive)

What does the record list as growth for CCCc1cc(=O)n2c(C(=O)Nc3ccc(F)cc3)c(C(=O)Nc3ccc(F)cc3)sc2n1 ?
67.2% [30 µM] (inactive)

Which growth reading was recorded for the compound Cc1cc(N2CCN(c3ccnc4cc(Cl)ccc34)CC2)nc(N2CCOCC2)n1 ?
88.6% (inactive)

Data origin, for the record: PubChem BioAssay (NCI)
